Tested on: MDA-MB-231 breast cancer cells
assay text: MTT cytotoxicity assay, MDA-MB-231
Assay type: cell-based
setup conditions: Homo sapiens; MDA-MB-231; MTT; 0.312 uM
property label: viability at 0.312 µM (%)
Please state the figure in %; there is no need to write the unit.

Known results for molecules:
- molecule: "CN(Cc1cnc2nc(N)nc(N)c2n1)c1ccc(C(=O)N[C@@H](CCC(=O)O)C(=O)O)cc1 [Methotrexate, reference compound]"
  endpoint value: 99.6
- molecule: "Nc1c(/N=C(/CBr)c2ccc([N+](=O)[O-])cc2)c(=O)[nH]c(=O)n1Cc1ccccc1"
  endpoint value: 99.4
- molecule: "Cn1c(=S)[nH]c(=O)c2nc(-c3ccccc3)c(-c3ccccc3)nc21"
  endpoint value: 100
- molecule: "CCn1c(N)c(/N=C(/CBr)c2ccc(OC)cc2)c(=O)[nH]c1=O"
  endpoint value: 100
- molecule: "COc1ccc(-c2cnc3c(n2)c(=O)[nH]c(=O)n3Cc2ccccc2)cc1"
  endpoint value: 99.7

Incoming: Please give the measured viability at 0.312 µM for this molecule: CCn1c(N)c(/N=C(/CBr)c2ccc([N+](=O)[O-])cc2)c(=O)[nH]c1=O
Outgoing: 99.7

Incoming: Entry Cn1c(SCC(=O)c2ccc([N+](=O)[O-])cc2)nc(=O)c(/N=C(/CBr)c2ccc([N+](=O)[O-])cc2)c1N : reported viability at 0.312 µM = ?
Outgoing: 97.6

---

assay text: MTT cytotoxicity assay, U-937
Assay type: cell-based
setup conditions: Homo sapiens, U-937; U937; MTT; 2.5 uM
property label: viability at 2.5 µM (%)
Give just the numeric value; % need not be written.

Before answering, review these 3 worked examples.
- smiles representation: "CCn1c(N)c(/N=C(/CBr)c2ccc(OC)cc2)c(=O)[nH]c1=O"
  units text: "%"
  endpoint value: 14.5
- smiles representation: "Nc1c(/N=C(/CBr)c2ccc([N+](=O)[O-])cc2)c(=O)[nH]c(=O)n1Cc1ccccc1"
  units text: "%"
  endpoint value: 99.1
- smiles representation: "Nc1c(/N=C(/CBr)c2ccccc2)c(=O)[nH]c(=O)n1Cc1ccccc1"
  units text: "%"
  endpoint value: 8.01

Turning to the following compound.
Incoming: Find the recorded viability at 2.5 µM belonging to COc1ccc(/C(CBr)=N\c2c(N)n(Cc3ccccc3Cl)c(=O)[nH]c2=O)cc1 and report it.
Outgoing: 12.2

---

assay text: MTT cytotoxicity assay, U-937;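 also: Six-dose MTT colorimetric assay on cell monolayers, formazan absorbance read at 560 nm with 620 nm background removed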
Assay type: cell-based
setup conditions: Homo sapiens, U-937; U937; MTT; 2.5 uM
property label: viability at 2.5 µM (%)
State the answer as a number, implicitly in %.

- molecule: "Nc1c(/N=C(/CBr)c2ccc([N+](=O)[O-])cc2)c(=O)[nH]c(=O)n1Cc1ccccc1Cl [Compound 5c]"
  viability at 2.5 µM (%): 99.3
- molecule: "Cn1c(SCC(=O)c2ccc([N+](=O)[O-])cc2)nc(=O)c(/N=C(/CBr)c2ccc([N+](=O)[O-])cc2)c1N [Compound 8]"
  viability at 2.5 µM (%): 99.8

# context switch: different molecule, same viability at 2.5 µM
Incoming: Field request: viability at 2.5 µM | item: COc1ccc(-c2cnc3c(n2)c(=O)[nH]c(=O)n3Cc2ccccc2)cc1 [Compound 9]
Outgoing: 77

---

assay text: MTT cytotoxicity assay, normal Vero cells
Type: cell-based
setup conditions: African green monkey, normal Vero cells; MTT; mean of three independent experiments ± SD; read-out: In Vitro Cytotoxicity against Normal Cells IC50 Value, Vero Cells
property label: IC50 (µM)
// note: answer is a bare numeric in µM

Some compounds with known IC50 results, for comparison:
- compound: "Nc1c(/N=C(/CBr)c2ccccc2)c(=O)[nH]c(=O)n1Cc1ccccc1"
  IC50, µM: 1.73
- compound: "COc1ccc(/C(CBr)=N\\c2c(N)n(Cc3ccccc3Cl)c(=O)[nH]c2=O)cc1"
  IC50, µM: 1.95
- compound: "Cn1c(SCC(=O)c2ccccc2)nc(=O)c(/N=C(/CBr)c2ccccc2)c1N"
  IC50, µM: 3.92

Incoming: Would you mind telling me what IC50 value was observed for CN(Cc1cnc2nc(N)nc(N)c2n1)c1ccc(C(=O)N[C@@H](CCC(=O)O)C(=O)O)cc1 [Methotrexate, reference compound] ?
Outgoing: 10.2

Incoming: Consider the compound shown here: CCn1c(N)c(/N=C(/CBr)c2ccc(OC)cc2)c(=O)[nH]c1=O What is its recorded IC50?
Outgoing: 2.06

---

Test system: HT-29 colorectal adenocarcinoma cells
assay text: MTT cytotoxicity assay, HT-29
Assay type: cell-based
setup conditions: Homo sapiens, HT-29; MTT; mean of three independent experiments ± SD; read-out: IC50 Value HT-29
property label: IC50 (µM)
Quick note: give the figure in µM, leave out the unit.

Here is how some compounds turned out for IC50.
- compound: "Cn1c(=S)[nH]c(=O)c2nc(-c3ccccc3)c(-c3ccccc3)nc21 [Compound 10]"
  IC50 (µM): 5.63
- compound: "Cn1c(SCC(=O)c2ccccc2)nc(=O)c(/N=C(/CBr)c2ccccc2)c1N [Compound 7]"
  IC50 (µM): 0.79
- compound: "Nc1c(/N=C(/CBr)c2ccc([N+](=O)[O-])cc2)c(=O)[nH]c(=O)n1Cc1ccccc1Cl [Compound 5c]"
  IC50 (µM): 2.24

Incoming: Query (compound): Nc1c(/N=C(/CBr)c2ccccc2)c(=O)[nH]c(=O)n1Cc1ccccc1 [Compound 4] ; field requested: IC50
Outgoing: 0.76

---

assay text: MTT cytotoxicity assay, normal Vero cells;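 also: monolayers exposed to two-fold dilutions in 2% serum medium, MTT added for 4 h, formazan in DMSO read at 560 nm minus 620 nm, controls given medium alone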
Assay type: cell-based
setup conditions: African green monkey, normal Vero cells; Vero; MTT; 5 uM
property label: viability at 5 µM (%)
Field format: number, assumed %, no unit text.

- compound: "COc1ccc(/C(CBr)=N\\c2c(N)n(Cc3ccccc3Cl)c(=O)[nH]c2=O)cc1 [Compound 6b]"
  viability at 5 µM (%): 12.8
- compound: "CN(Cc1cnc2nc(N)nc(N)c2n1)c1ccc(C(=O)N[C@@H](CCC(=O)O)C(=O)O)cc1 [Methotrexate, reference compound]"
  viability at 5 µM (%): 87.6
- compound: "Cn1c(SCC(=O)c2ccccc2)nc(=O)c(/N=C(/CBr)c2ccccc2)c1N [Compound 7]"
  viability at 5 µM (%): 31.6

Incoming: Which viability at 5 µM is reported for this compound? CCn1c(N)c(/N=C(/CBr)c2ccc(OC)cc2)c(=O)[nH]c1=O [Compound 6a]
Outgoing: 11.6

Incoming: Entry Nc1c(/N=C(/CBr)c2ccccc2)c(=O)[nH]c(=O)n1Cc1ccccc1 [Compound 4] : reported viability at 5 µM = ?
Outgoing: 6.63

---

System: HT-29 colorectal adenocarcinoma cells
assay text: MTT cytotoxicity assay, HT-29
Format: cell-based
setup conditions: Homo sapiens, HT-29; MTT; mean of three independent experiments ± SD; read-out: IC50 Value HT-29
property label: IC50 (µM)
The response must be a number in µM with no trailing unit.

Some solved entries appear below for comparison.
- compound: "Nc1c(/N=C(/CBr)c2ccc([N+](=O)[O-])cc2)c(=O)[nH]c(=O)n1Cc1ccccc1"
  property label: "IC50"
  units text: "µM"
  endpoint value: 3.66
- compound: "COc1ccc(-c2cnc3c(n2)c(=O)[nH]c(=O)n3Cc2ccccc2)cc1"
  property label: "IC50"
  units text: "µM"
  endpoint value: 4.11

Incoming: Any idea what its IC50 is? The compound is Cn1c(SCC(=O)c2ccc([N+](=O)[O-])cc2)nc(=O)c(/N=C(/CBr)c2ccc([N+](=O)[O-])cc2)c1N
Outgoing: 6.48

Incoming: Reported IC50, compound CN(Cc1cnc2nc(N)nc(N)c2n1)c1ccc(C(=O)N[C@@H](CCC(=O)O)C(=O)O)cc1 [Methotrexate, reference compound] : ____
Outgoing: 0.99

---

Tested on: MDA-MB-231 breast cancer cells
assay text: MTT cytotoxicity assay, MDA-MB-231
Type: cell-based
setup conditions: MDA-MB-231; MTT; 0.312 uM
Protocol: All newly synthetic compounds were tested for cytotoxicity using a six-dose MTT colorimetric assay on three cancer cell lines; namely, breast cancer cells (MDA-MB-231), colorectal adenocarcinoma cells (HT-29) and renal cancer cells (U-937). […] However, renal cancer cells (U-937) were discovered to be the least sensitive. […] The cell lines were supplied by ATCC (American Type Culture Collection). […] The optical density was measured at 560 nm, and the background was subtracted at 620 nm. […]
Please note: 1 applies when Toxicity % is 0.3% or greater, and 0 applies otherwise.

Worked cases, answers included:
- smiles representation: "COc1ccc(/C(CBr)=N\\c2c(N)n(Cc3ccccc3Cl)c(=O)[nH]c2=O)cc1"
  label class: 1
- smiles representation: "Nc1c(/N=C(/CBr)c2ccc([N+](=O)[O-])cc2)c(=O)[nH]c(=O)n1Cc1ccccc1Cl"
  label class: 1
- smiles representation: "Nc1c(/N=C(/CBr)c2ccccc2)c(=O)[nH]c(=O)n1Cc1ccccc1"
  label class: 1

Incoming: Given the entry CCn1c(N)c(/N=C(/CBr)c2ccc([N+](=O)[O-])cc2)c(=O)[nH]c1=O , answer whether its Toxicity % meets or surpasses 0.3%.
Outgoing: 0

Incoming: Does Cn1c(SCC(=O)c2ccccc2)nc(=O)c(/N=C(/CBr)c2ccccc2)c1N have a reported Toxicity % of at least 0.3%?
Outgoing: 1

Incoming: Reported Toxicity % reaches at least 0.3% for Cn1c(SCC(=O)c2ccc([N+](=O)[O-])cc2)nc(=O)c(/N=C(/CBr)c2ccc([N+](=O)[O-])cc2)c1N ?
Outgoing: 1

Incoming: Quick check, Toxicity % >= 0.3%? CCn1c(N)c(/N=C(/CBr)c2ccc(OC)cc2)c(=O)[nH]c1=O
Outgoing: 0

Incoming: Entry Cn1c(=S)[nH]c(=O)c2nc(-c3ccccc3)c(-c3ccccc3)nc21 : is its Toxicity % no less than 0.3%?
Outgoing: 0
